- protocol-text: Bioavailability in fasted Sprague-Dawley rat at 25 mg/kg, po
- Type: ADME, organism-based
- conditions: in vivo
# Lookup of reported bioavailability keyed by entry

smiles-code | unit-info | bioavailability
CC(C)(c1cc(NC(=O)Nc2ccc(-c3cc(-c4ccc(OCCN5CCOCC5)cc4)[nH]n3)cc2)no1)C(F)(F)F | % | 21.1
CC(C)(C)c1cc(NC(=O)Nc2ccc(-c3cc(-c4ccc(OCCN5CCOCC5)cc4)[nH]n3)cc2)no1 | % | 23.6

---

# Lookup of reported Cmax keyed by entry
- protocol-text: Cmax in fasted Sprague-Dawley rat at 25 mg/kg, po
- Type: ADME, organism-based
- Design: dose 25 mg/kg, route po
- conditions: in vivo

smiles-code | Cmax [ng/mL]
CC(C)(c1cc(NC(=O)Nc2ccc(-c3cc(-c4ccc(OCCN5CCOCC5)cc4)[nH]n3)cc2)no1)C(F)(F)F | 2060
CC(C)(C)c1cc(NC(=O)Nc2ccc(-c3cc(-c4ccc(OCCN5CCOCC5)cc4)[nH]n3)cc2)no1 | 1250

---

- Tested on: BaF3
- protocol-text: Antiproliferative activity against mouse BaF3 cells expressing CCDC6-RET-G810C incubated for 72 hrs by CCK8 assay
- Type: functional, cell-based
- conditions: BaF3, 72 h
# Lookup of reported IC50 keyed by entry
parameter: IC50

smiles-code | measured-value
CC(C)(C)c1cc(NC(=O)Nc2ccc(-c3cc(-c4ccc(OCCN5CCOCC5)cc4Br)[nH]n3)cc2)no1 | 606 nM
COc1cc(-c2cc(-c3ccc(NC(=O)Nc4cc(C(C)(C)C(F)(F)F)on4)c(F)c3)n[nH]2)ccc1OCCN1CCOCC1 | 118 nM
CO[C@]1(C(=O)N[C@@H](C)c2ccc(-n3cc(F)cn3)nc2)CC[C@@H](c2nc(C)cc(Nc3cc(C)[nH]n3)n2)CC1 | 114 nM
COc1ccc(CN2[C@@H]3C[C@H]2CN(c2ccc(-c4cc(OCC(C)(C)O)cn5ncc(C#N)c45)cn2)C3)cn1 | 1310 nM
CC(C)(C)c1cc(NC(=O)Nc2ccc(-c3cc(-c4ccc(OCCN5CCOCC5)cc4F)[nH]n3)cc2)no1 | 412 nM
CC(C)(C)c1cc(NC(=O)Nc2ccc(-c3n[nH]c(-c4ccc(OCCN5CCOCC5)cc4Cl)n3)cc2)no1 | 682 nM
CC(C)(C)c1cc(NC(=O)Nc2ccc(-c3cc(-c4ccc(OCCN5CCOCC5)c(Cl)c4)[nH]n3)cc2)no1 | 159 nM

---

- system: Mast/stem cell growth factor receptor Kit (Homo sapiens)
- Sequence (P10721 whole entry): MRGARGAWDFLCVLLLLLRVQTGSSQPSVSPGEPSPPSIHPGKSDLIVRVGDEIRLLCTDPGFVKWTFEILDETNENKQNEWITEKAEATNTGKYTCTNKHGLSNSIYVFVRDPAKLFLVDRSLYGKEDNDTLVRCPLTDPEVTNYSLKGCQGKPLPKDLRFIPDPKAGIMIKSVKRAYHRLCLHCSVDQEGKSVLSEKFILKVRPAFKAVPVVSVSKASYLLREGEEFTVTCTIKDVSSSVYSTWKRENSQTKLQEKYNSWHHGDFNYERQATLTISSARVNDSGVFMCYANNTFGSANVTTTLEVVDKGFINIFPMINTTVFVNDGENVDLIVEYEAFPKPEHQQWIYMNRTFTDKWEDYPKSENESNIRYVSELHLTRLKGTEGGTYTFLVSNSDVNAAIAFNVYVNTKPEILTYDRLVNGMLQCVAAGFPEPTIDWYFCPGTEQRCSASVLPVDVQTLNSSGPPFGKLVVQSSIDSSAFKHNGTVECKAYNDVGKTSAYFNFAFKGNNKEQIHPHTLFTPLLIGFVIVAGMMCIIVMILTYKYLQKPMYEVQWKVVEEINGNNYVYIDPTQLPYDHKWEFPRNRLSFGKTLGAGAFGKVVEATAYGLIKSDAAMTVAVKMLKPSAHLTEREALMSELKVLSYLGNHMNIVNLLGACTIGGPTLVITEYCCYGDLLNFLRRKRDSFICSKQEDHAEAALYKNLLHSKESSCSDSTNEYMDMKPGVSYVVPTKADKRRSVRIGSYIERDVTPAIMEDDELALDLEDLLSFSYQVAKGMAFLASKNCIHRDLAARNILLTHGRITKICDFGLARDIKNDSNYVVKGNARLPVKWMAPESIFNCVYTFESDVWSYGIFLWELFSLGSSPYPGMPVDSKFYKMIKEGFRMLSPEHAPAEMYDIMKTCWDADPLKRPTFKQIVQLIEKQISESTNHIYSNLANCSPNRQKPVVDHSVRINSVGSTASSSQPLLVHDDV
pIC50: −log10 of the molar value.

smiles-code | pIC50
CC(C)(c1cc(NC(=O)Nc2ccc(-c3cc(-c4ccc(OCCN5CCOCC5)cc4)[nH]n3)cc2)no1)C(F)(F)F | 7.35

---

- protocol-text: Half life in Sprague-Dawley rat at 5 mg/kg, iv
- Type: ADME, organism-based
- conditions: in vivo
parameter: half-life

smiles-code | parameter | measured-value
CC(C)(C)c1cc(NC(=O)Nc2ccc(-c3cc(-c4ccc(OCCN5CCOCC5)cc4)[nH]n3)cc2)no1 | half-life | 3.3 h
CC(C)(c1cc(NC(=O)Nc2ccc(-c3cc(-c4ccc(OCCN5CCOCC5)cc4)[nH]n3)cc2)no1)C(F)(F)F | half-life | 8.8 h

---

- system: UniProt P07949
pKd: −log10 of the molar value.
Threshold rule: pKd greater than or equal to 8 is Satisfied; below that, Not satisfied.

smiles-code | class-assignment
CC(C)(C)c1cc(NC(=O)Nc2ccc(-c3cc(-c4ccc(OCCN5CCOCC5)cc4)[nH]n3)cc2Cl)no1 | Not satisfied
COc1cc(-c2cc(-c3ccc(NC(=O)Nc4cc(C(C)(C)C(F)(F)F)on4)cc3)n[nH]2)ccc1OCCN1CCOCC1 | Satisfied
CC(C)(C)c1cc(NC(=O)Nc2ccc(-c3c[nH]c(-c4ccc(OCCN5CCOCC5)cc4Cl)n3)cc2)no1 | Not satisfied

---

# Lookup of reported IC50 keyed by entry
- System: BaF3
- protocol-text: Antiproliferative activity against mouse BaF3 cells expressing CCDC6-RET-G810C incubated for 72 hrs by CCK8 assay
- Format: functional, cell-based
- conditions: BaF3, 72 h

smiles-code | unit-info | IC50
CC(C)(C)c1cc(NC(=O)Nc2ccc(-c3cn(-c4ccc(OCCN5CCOCC5)cc4Cl)nn3)cc2)no1 | nM | 1830
CN(C)CCOc1ccc(-c2cc(-c3ccc(NC(=O)Nc4cc(C(C)(C)C)on4)cc3)n[nH]2)cc1 | nM | 103
CC(C)(C)c1cc(NC(=O)Nc2ccc(-c3cc(-c4ccc(OCCCN5CCOCC5)cc4)[nH]n3)cc2)no1 | nM | 166

---

# Lookup of reported IC50 keyed by entry
- system: Proto-oncogene tyrosine-protein kinase receptor Ret (Homo sapiens, UniProt P07949, V804M)
- Sequence (P07949 29-1114 V804M limits assumed): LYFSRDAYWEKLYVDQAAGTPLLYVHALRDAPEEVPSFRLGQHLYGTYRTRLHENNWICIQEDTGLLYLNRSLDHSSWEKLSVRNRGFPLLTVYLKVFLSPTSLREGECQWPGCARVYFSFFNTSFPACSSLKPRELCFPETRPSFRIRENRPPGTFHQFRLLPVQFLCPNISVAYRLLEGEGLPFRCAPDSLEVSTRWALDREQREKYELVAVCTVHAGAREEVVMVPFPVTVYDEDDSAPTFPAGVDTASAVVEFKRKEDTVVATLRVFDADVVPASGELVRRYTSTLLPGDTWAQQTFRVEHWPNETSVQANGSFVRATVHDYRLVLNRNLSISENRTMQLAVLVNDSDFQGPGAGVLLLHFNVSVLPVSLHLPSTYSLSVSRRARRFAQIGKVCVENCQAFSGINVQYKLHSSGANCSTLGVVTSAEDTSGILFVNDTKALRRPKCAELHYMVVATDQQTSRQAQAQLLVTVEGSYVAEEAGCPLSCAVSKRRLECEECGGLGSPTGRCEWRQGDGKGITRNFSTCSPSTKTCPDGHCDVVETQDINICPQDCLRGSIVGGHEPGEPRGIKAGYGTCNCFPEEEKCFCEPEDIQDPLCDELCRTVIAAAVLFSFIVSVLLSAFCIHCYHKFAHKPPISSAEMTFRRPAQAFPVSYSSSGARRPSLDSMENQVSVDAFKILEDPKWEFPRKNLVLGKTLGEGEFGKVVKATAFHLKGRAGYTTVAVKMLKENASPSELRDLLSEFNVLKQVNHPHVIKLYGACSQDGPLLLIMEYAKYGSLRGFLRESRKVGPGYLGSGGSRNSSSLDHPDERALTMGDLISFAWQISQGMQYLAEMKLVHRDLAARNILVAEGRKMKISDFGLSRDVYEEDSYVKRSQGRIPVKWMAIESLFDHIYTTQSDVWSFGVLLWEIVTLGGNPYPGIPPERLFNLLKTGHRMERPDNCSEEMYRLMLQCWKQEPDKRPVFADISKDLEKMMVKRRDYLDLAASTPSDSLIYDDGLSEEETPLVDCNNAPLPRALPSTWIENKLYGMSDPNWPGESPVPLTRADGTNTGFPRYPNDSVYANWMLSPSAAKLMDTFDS
- protocol-text: Inhibition of RET V804M mutant (unknown origin) by DiscoverX KINOMEscan assay

smiles-code | IC50 (nM)
CC(C)(c1cc(NC(=O)Nc2ccc(-c3cc(-c4ccc(OCCN5CCOCC5)cc4)[nH]n3)cc2)no1)C(F)(F)F | 18.3
CC(C)(C)c1cc(NC(=O)Nc2ccc(-c3cc(-c4ccc(OCCN5CCOCC5)cc4)[nH]n3)cc2)no1 | 15.4

---

- system: Epithelial discoidin domain-containing receptor 1 (Homo sapiens)
- Sequence (Q08345 whole entry, the tested form may be a part): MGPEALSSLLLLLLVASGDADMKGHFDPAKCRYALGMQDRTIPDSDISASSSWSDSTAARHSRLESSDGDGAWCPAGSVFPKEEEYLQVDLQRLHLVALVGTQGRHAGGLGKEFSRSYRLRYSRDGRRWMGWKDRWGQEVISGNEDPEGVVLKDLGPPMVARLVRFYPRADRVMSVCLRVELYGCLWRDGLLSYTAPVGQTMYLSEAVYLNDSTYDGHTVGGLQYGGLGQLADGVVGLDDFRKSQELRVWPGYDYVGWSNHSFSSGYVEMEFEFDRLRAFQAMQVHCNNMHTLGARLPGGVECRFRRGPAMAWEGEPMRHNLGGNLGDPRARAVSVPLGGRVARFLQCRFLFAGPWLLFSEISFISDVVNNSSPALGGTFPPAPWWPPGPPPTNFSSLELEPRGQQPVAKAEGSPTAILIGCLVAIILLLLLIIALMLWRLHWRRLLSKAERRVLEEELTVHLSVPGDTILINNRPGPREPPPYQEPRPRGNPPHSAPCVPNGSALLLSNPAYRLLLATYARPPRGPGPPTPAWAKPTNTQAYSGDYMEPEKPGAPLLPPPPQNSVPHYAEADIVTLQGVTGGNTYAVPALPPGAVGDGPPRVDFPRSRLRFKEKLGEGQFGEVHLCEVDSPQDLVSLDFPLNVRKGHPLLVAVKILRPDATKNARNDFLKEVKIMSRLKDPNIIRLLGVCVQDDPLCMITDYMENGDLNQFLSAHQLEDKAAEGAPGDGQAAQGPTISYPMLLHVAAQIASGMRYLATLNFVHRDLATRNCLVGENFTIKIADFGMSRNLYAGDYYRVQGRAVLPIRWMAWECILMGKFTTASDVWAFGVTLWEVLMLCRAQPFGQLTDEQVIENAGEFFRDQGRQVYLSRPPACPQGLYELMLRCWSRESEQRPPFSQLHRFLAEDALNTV
parameter: IC50

smiles-code | measured-value
CC(C)(c1cc(NC(=O)Nc2ccc(-c3cc(-c4ccc(OCCN5CCOCC5)cc4)[nH]n3)cc2)no1)C(F)(F)F | 66.6 nM
CC(C)(C)c1cc(NC(=O)Nc2ccc(-c3cc(-c4ccc(OCCN5CCOCC5)cc4)[nH]n3)cc2)no1 | 9 nM

---

- protocol-text: Cmax in Sprague-Dawley rat at 5 mg/kg, iv
- Assay type: ADME, organism-based
- Parameters: dose 5 mg/kg, route iv
- conditions: in vivo
parameter: Cmax (µg/mL)

smiles-code | parameter | unit-info | measured-value
CC(C)(C)c1cc(NC(=O)Nc2ccc(-c3cc(-c4ccc(OCCN5CCOCC5)cc4)[nH]n3)cc2)no1 | Cmax | µg/mL | 10.7
CC(C)(c1cc(NC(=O)Nc2ccc(-c3cc(-c4ccc(OCCN5CCOCC5)cc4)[nH]n3)cc2)no1)C(F)(F)F | Cmax | µg/mL | 9.97

---

- Test system: BaF3
- protocol-text: cells
- conditions: Mus musculus, BaF3, 72 h
- Description: Antiproliferative activity against mouse BaF3 cells incubated for 72 hrs by CCK8 assay
pIC50: −log10 of the molar value.
# Lookup of reported pIC50 keyed by entry
parameter: pIC50

smiles-code | qualifying-sign | measured-value
COc1ccc(CN2[C@@H]3C[C@H]2CN(c2ccc(-c4cc(OCC(C)(C)O)cn5ncc(C#N)c45)cn2)C3)cn1 | < | 5.52
CC(C)(C)c1cc(NC(=O)Nc2ccc(-c3cc(-c4ccc(OCCN5CCOCC5)cc4F)[nH]n3)cc2)no1 | < | 5.00
COc1cc(-c2cc(-c3ccc(NC(=O)Nc4cc(C(C)(C)C)on4)cc3)n[nH]2)ccc1OCCN1CCOCC1 | = | 6.35
Cc1cc(OCCN2CCOCC2)ccc1-c1cc(-c2ccc(NC(=O)Nc3cc(C(C)(C)C)on3)cc2)n[nH]1 | < | 5.52
CC(C)(C)c1cc(NC(=O)Nc2ccc(-c3cc(-c4cccc(OCCN5CCOCC5)c4)[nH]n3)cc2)no1 | = | 5.81
CC(C)(C)c1cc(NC(=O)Nc2ccc(-c3n[nH]c(-c4ccc(OCCN5CCOCC5)cc4Cl)n3)cc2)no1 | = | 6.37
Cc1cc(NC(=O)Nc2cc(C(C)(C)C)on2)ccc1-c1cc(-c2ccc(OCCN3CCOCC3)cc2)[nH]n1 | < | 5.00
CC(C)(C)c1cc(NC(=O)Nc2ccc(-c3c[nH]c(-c4ccc(OCCN5CCOCC5)cc4Cl)n3)cc2)no1 | = | 6.11

---

- system: Proto-oncogene tyrosine-protein kinase receptor Ret (Homo sapiens)
parameter: IC50 (nM)

smiles-code | parameter | unit-info | measured-value
CC(C)(c1cc(NC(=O)Nc2ccc(-c3cc(-c4ccc(OCCN5CCOCC5)cc4)[nH]n3)cc2)no1)C(F)(F)F | IC50 | nM | 20.9

---

- protocol-text: Tmax in fasted Sprague-Dawley rat at 25 mg/kg, po
- Type: ADME, organism-based
- conditions: in vivo

smiles-code | Tmax
CC(C)(c1cc(NC(=O)Nc2ccc(-c3cc(-c4ccc(OCCN5CCOCC5)cc4)[nH]n3)cc2)no1)C(F)(F)F | 6.7 h
CC(C)(C)c1cc(NC(=O)Nc2ccc(-c3cc(-c4ccc(OCCN5CCOCC5)cc4)[nH]n3)cc2)no1 | 6 h

---

- Test system: BaF3
- protocol-text: cells
- conditions: Mus musculus, BaF3, 72 h
pIC50: −log10 of the molar value.
parameter: pIC50

smiles-code | qualifying-sign | measured-value
CC(C)(C)c1cc(NC(=O)Nc2ccc(-c3cc(-c4ccc(OCCN5CCOCC5)cc4Br)[nH]n3)cc2)no1 | = | 5.92
CN(C)CCOc1ccc(-c2cc(-c3ccc(NC(=O)Nc4cc(C(C)(C)C)on4)cc3)n[nH]2)cc1 | = | 5.71
CC(C)(C)c1cc(NC(=O)Nc2ccc(-c3cn(-c4ccc(OCCN5CCOCC5)cc4Cl)nn3)cc2)no1 | = | 5.96
CC(C)(C)c1cc(NC(=O)Nc2ccc(-c3cc(-c4ccc(OCCN5CCOCC5)cc4)[nH]n3)c(Cl)c2)no1 | = | 5.98
COc1cc(-c2cc(-c3ccc(NC(=O)Nc4cc(C(C)(C)C)on4)c(F)c3)n[nH]2)ccc1OCCN1CCOCC1 | < | 5.00
CC(C)(C)c1cc(NC(=O)Nc2ccc(-c3cc(-c4ccc(OCCN5CCOCC5)c(Cl)c4)[nH]n3)cc2)no1 | < | 5.00
CC(C)(C)c1cc(NC(=O)Nc2ccc(-c3cc(-c4ccc(OCCN5CCOCC5)cc4Cl)[nH]n3)cc2)no1 | < | 5.00
CC(C)(C)c1cc(NC(=O)Nc2ccc(-c3cc(-c4ccc(OCCN5CCOCC5)c(F)c4)[nH]n3)cc2)no1 | < | 5.00
